System: HOP-92 NSCLC
measurement-description: NCI tumour cell line growth inhibition, 48 h
Measured TGI, listed per entry.

Below are worked cases with known answers.
compound	TGI
COc1cc(C2SCC(=O)N2Cc2ccccc2)cc(OC)c1OC (centres undefined)	71.8 µM
O=Nc1c(-c2c(O)[nH]c3ccccc23)[nH]c2ccccc12	> 29.6 µM
O=C1/C(=C\c2ccc(F)cc2)CN(C(=O)c2ccc([N+](=O)[O-])cc2)C/C1=C\c1ccc(F)cc1	> 100 µM

Now let's try a different one.
Using the record for CNC1C(O)C(NC)C2OC3(O)C(=O)CC(C)OC3OC2C1O (centres undefined) , state its measured TGI.
> 100 µM

Every entry's value here was drawn from PubChem BioAssay (NCI).
